target_entity: Dual specificity protein phosphatase 1 (Homo sapiens) (UniProt P28562)
Sequence (P28562 whole entry, looked up): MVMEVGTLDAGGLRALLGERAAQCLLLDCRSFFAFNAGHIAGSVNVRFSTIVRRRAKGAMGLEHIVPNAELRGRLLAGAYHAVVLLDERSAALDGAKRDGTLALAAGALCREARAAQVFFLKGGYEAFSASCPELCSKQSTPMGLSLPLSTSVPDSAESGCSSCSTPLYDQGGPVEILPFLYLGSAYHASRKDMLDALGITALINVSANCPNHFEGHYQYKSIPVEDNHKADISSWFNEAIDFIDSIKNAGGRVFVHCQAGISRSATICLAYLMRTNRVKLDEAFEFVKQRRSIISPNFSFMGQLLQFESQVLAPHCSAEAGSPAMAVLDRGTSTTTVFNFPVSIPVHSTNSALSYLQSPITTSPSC
measurement_description: MKP-1 phosphatase inhibitors with catalase, dose response, biochemical, catalase added, active/probe assessment (AID 562)
experimental_parameters: recombinant MKP-1 phosphatase, fluorescence
The source made the active and inactive calls. The rule behind the calls is not given here.
Thanks in advance; please answer with one of these: YES = active, NO = inactive

CCOC(=O)c1ccc2c(c1)C1C=CCC1C(C(=O)O)N2 (stereo not drawn) : YES
COc1ccc2noc3c2c1C(=O)c1ccccc1-3 : YES
Cc1ccc(/C=C/C2=Cc3c(sc(NC(=O)CSc4n[nH]c(N)n4)c3C#N)C(C)(C)C2)o1 : YES
COc1cc(/C=C(/C#N)c2ccc(F)cc2)ccc1OCc1ccc(C(=O)O)o1 : NO
[O-]/[N+](=C/c1ccc(F)cc1)c1ccccc1 : NO

Exam item: Dear all, I need the recorded test outcome for O=C(OC1CCCCC1)c1ccc2c(c1)C1C=CCC1C(C(=O)O)N2 (stereo not drawn) , thank you.
Marked response: YES

Exam item: Dear all, I need the recorded test outcome for Cc1cccc(N2CCN(C(=O)Cc3c(C(=O)O)[nH]c4ccc(Cl)cc34)CC2)c1C , thank you.
Marked response: YES

Exam item: Dear all, I need the recorded test outcome for CCn1nc(-c2cccs2)nc2c(=O)n(C)c(=O)nc1-2 , thank you.
Marked response: NO

Exam item: Dear all, I need the recorded test outcome for Cc1nc2c(C(=O)NCCC3=CCCCC3)c[nH]n2c(=O)c1Cl , thank you.
Marked response: YES

Exam item: Dear all, I need the recorded test outcome for CCc1ccc(NC(=O)CSc2nc3ccccc3c(=O)n2CCN2CCOCC2)cc1 , thank you.
Marked response: NO

Exam item: Dear all, I need the recorded test outcome for CCn1c(SCC(=O)Nc2ccc3c(c2)c2ccccc2n3CC)nnc1-c1ccco1 , thank you.
Marked response: YES

Exam item: Dear all, I need the recorded test outcome for [O-]/[N+](=C\c1ccncc1)c1ccccc1 , thank you.
Marked response: YES

Exam item: Dear all, I need the recorded test outcome for O=C(Nc1ccccc1)c1ccc2nc(-c3ccco3)c(-c3ccco3)nc2c1 , thank you.
Marked response: YES

Exam item: Dear all, I need the recorded test outcome for CCCSc1nnc(NC(=O)c2sc3nc(-c4cccs4)ccc3c2N)s1 , thank you.
Marked response: YES

Exam item: Dear all, I need the recorded test outcome for CC(C)(C)N1C(=O)Cc2c1nc(N)c1c(N)nc(N3CCCCC3CO)c(C#N)c21 (stereo not drawn) , thank you.
Marked response: NO

Exam item: Dear all, I need the recorded test outcome for CCn1nc(-c2ccccc2)nc2c(=O)n(C)c(=O)nc1-2 , thank you.
Marked response: NO

----------
target_entity: Dual specificity protein phosphatase 1 (Homo sapiens) (UniProt P28562)
measurement_description: MKP-1 phosphatase inhibitors with catalase, dose response, biochemical, catalase added, active/probe assessment (AID 562)
experimental_parameters: recombinant MKP-1 phosphatase, fluorescence
Calls of active or inactive are those of the source. How the calls were made is not given here.
Thanks in advance; please answer with one of these: active, inactive

O=C(c1cccs1)c1no[n+]([O-])c1C(=O)c1cccs1 : active
N#Cc1c(N)sc(=S)c2c1CCN(Cc1ccccc1)C2 : inactive
Cc1ccc(-c2csc(NC(=O)c3ccno3)n2)cc1 : active

Exam item: Dear all, I need the recorded test outcome for N#Cc1c(N2CCCC2)nc(N)c2c(N)nc(N3CCCC3)cc12 , thank you.
Marked response: inactive

Exam item: Dear all, I need the recorded test outcome for O=C1c2ccccc2-c2onc3ccc(NCCCn4ccnc4)c1c23 , thank you.
Marked response: active

Exam item: Dear all, I need the recorded test outcome for Cc1ccc(C)n1-c1cccc(C(=O)O)c1 , thank you.
Marked response: active

Exam item: Dear all, I need the recorded test outcome for CCCCNC(=O)c1c(N)n(CCCOC)c2nc3ccccc3nc12 , thank you.
Marked response: inactive

Exam item: Dear all, I need the recorded test outcome for CCOc1ccc(-c2cc3nc(C4CCN(C(=O)OC(C)(C)C)CC4)c(C(=O)O)cn3n2)cc1 , thank you.
Marked response: active

Exam item: Dear all, I need the recorded test outcome for CCCCCNC(=O)c1ccc2c(=O)[nH]c3c(C(=O)NCC4CCCO4)sc(=S)n3c2c1 (configuration not stated) , thank you.
Marked response: active

Exam item: Dear all, I need the recorded test outcome for FC(F)(F)c1ccc(N2CCOCC2)c(Nc2nc3ccccc3n3cnnc23)c1 , thank you.
Marked response: inactive

Exam item: Dear all, I need the recorded test outcome for CCCCn1c(NC(=O)c2ccccc2)c(C#N)c2nc3ccccc3nc21 , thank you.
Marked response: active

Exam item: Dear all, I need the recorded test outcome for CCOc1ccc2noc3c2c1C(=O)c1ccccc1-3 , thank you.
Marked response: active

Exam item: Dear all, I need the recorded test outcome for CCOc1cc(/C=C(/C#N)c2ccc(F)cc2)ccc1OCc1ccc(C(=O)O)o1 , thank you.
Marked response: active

Exam item: Dear all, I need the recorded test outcome for O=C(NC1(O)C(=O)c2ccccc2C1=O)c1ccccc1 , thank you.
Marked response: inactive

Exam item: Dear all, I need the recorded test outcome for O=C(Nc1ccc2nc(-c3ccco3)c(-c3ccco3)nc2c1)N1CCCCCC1 , thank you.
Marked response: active

Exam item: Dear all, I need the recorded test outcome for COc1ccc(-n2c(NC(=O)c3ccco3)c(C#N)c3nc4ccccc4nc32)cc1 , thank you.
Marked response: inactive

Exam item: Dear all, I need the recorded test outcome for CCCCCC#CCC#CCC#CCC#CCCCC(=O)O , thank you.
Marked response: active

Exam item: Dear all, I need the recorded test outcome for Cc1cc(NC(=O)c2ccc(S(=O)(=O)N3CCCC3)cc2)nc2c1c(=O)oc1ccccc12 , thank you.
Marked response: active

Exam item: Dear all, I need the recorded test outcome for CC(C)Sc1nc2sc3c(c2c2nnc(SCC(=O)NCc4ccco4)n12)CCCC3 , thank you.
Marked response: active

Exam item: Dear all, I need the recorded test outcome for COc1ccc(-c2cc3nc(C4CCN(C(=O)OC(C)(C)C)CC4)c(C(=O)O)cn3n2)cc1 , thank you.
Marked response: active

Exam item: Dear all, I need the recorded test outcome for CC1=C(/C=C/C(C)=C/C=C/C(C)=C/C(=O)O)C(C)(C)CCC1 , thank you.
Marked response: active

Exam item: Dear all, I need the recorded test outcome for N#Cc1c(NC(=O)c2ccc(Br)o2)n(-c2ccccc2)c2nc3ccccc3nc12 , thank you.
Marked response: inactive

----------
target_entity: Dual specificity protein phosphatase 1 (Homo sapiens) (UniProt P28562)
measurement_description: MKP-1 phosphatase inhibitors with catalase, dose response, biochemical, catalase added, active/probe assessment (AID 562)
experimental_parameters: recombinant MKP-1 phosphatase, fluorescence
Active and inactive are the calls of the source. No rule for the calls is given here.
Thanks in advance; please answer with one of these: 1 (yes) (active), 0 (no) (inactive)

COCCCn1c(N)c(C(=O)NCCC(C)C)c2nc3ccccc3nc21 : 0 (no)
CC(=O)[C@@H]1[C@@H]2C(=O)N(c3ccc(F)c(Cl)c3)C(=O)[C@@H]2C2c3ccccc3C=CN21 (stereo partly specified) : 0 (no)
COc1ccc(Cn2c(C)nc3c(c2=O)c2nc4ccccc4nc2n3Cc2ccco2)cc1 : 1 (yes)

Exam item: Dear all, I need the recorded test outcome for Cc1c(N=c2c(=O)c3ccccc3c2=O)c(=O)n(-c2ccccc2)n1C , thank you.
Marked response: 0 (no)

Exam item: Dear all, I need the recorded test outcome for COc1ccc(Br)cc1/C=c1\sc2nc(-c3ccco3)nn2c1=O , thank you.
Marked response: 1 (yes)

Exam item: Dear all, I need the recorded test outcome for Cc1cc(C)n2c(SCC(=O)N3CCN(S(=O)(=O)c4ccc(Cl)cc4)CC3)nnc2n1 , thank you.
Marked response: 1 (yes)

Exam item: Dear all, I need the recorded test outcome for Cn1ncnc2c(=O)n(C)c(=O)nc1-2 , thank you.
Marked response: 0 (no)

----------
target_entity: Dual specificity protein phosphatase 1 (Homo sapiens)
measurement_description: MKP-1 phosphatase inhibitors with catalase, dose response, biochemical, catalase added, active/probe assessment (AID 562)
experimental_parameters: recombinant MKP-1 phosphatase, fluorescence
Active and inactive are the calls of the source. The rule behind the calls is not given here.
Thanks in advance; please answer with one of these: y for active, n for inactive

Record excerpt, results attached:
O=C1Nc2ccccc2SC(c2ccccc2)C1O (configuration not stated) : y
Cc1cccc(NC(=O)c2cc(NC(=O)C3CCCCC3C(=O)O)ccc2N2CCCCC2)c1 (configuration not stated) : n
Nc1c(N2CCCC2)cc(Cl)c2nonc12 : n
O=C1C=Cc2ccccc2C1=O : y
Nc1nc2c(s1)CCc1c-2cnn1-c1ccccc1 : n

Exam item: Dear all, I need the recorded test outcome for CCCCn1c(SCC(=O)c2ccc(OC)cc2OC)nc2cc(S(N)(=O)=O)ccc21 , thank you.
Marked response: y

Exam item: Dear all, I need the recorded test outcome for [O-]/[N+](=C\c1ccc(OC(F)F)cc1)c1ccccc1 , thank you.
Marked response: n

----------
target_entity: Dual specificity protein phosphatase 1 (Homo sapiens) (UniProt P28562)
measurement_description: MKP-1 phosphatase inhibitors with catalase, dose response, biochemical, catalase added, active/probe assessment (AID 562)
experimental_parameters: recombinant MKP-1 phosphatase, fluorescence
The source made the active and inactive calls. How the calls were made is not given here.
Thanks in advance; please answer with one of these: Yes for active, No for inactive

Record excerpt, results attached:
COC(=O)c1ccccc1NC(=O)CN1C(=O)C2CCCN2c2ncc(Cl)cc21 (centres undefined) : No
CC(C)Cn1c(N)c(C(=O)COC(=O)c2cc(-c3ccco3)nc3ccccc23)c(=O)n(C)c1=O : Yes
Cc1nc2cc(-c3cccc(F)c3)nn2c(C)c1CCC(=O)N1CCC2(CC1)OCCO2 : No

Next, consider the following compound.
Exam item: Dear all, I need the recorded test outcome for O=C1C=C(NCc2ccc(Cl)c(Cl)c2)CC1 , thank you.
Marked response: No
